TARGET_UNDER_TEST: T1, Cynomolgus PD-1 extracellular domain, hFc tag (cynomolgus, UniProt B0LAJ3 25-170)
T1 construct: Bought; also called cynoPro1.ECD.hFc; cyno PD-1 ECD protein
METHOD_NOTES: SPR Biacore 8K; PD-1-hFc captured on anti-human Fc chip, VHH injected; 1:1 fit
VALUE_TYPE: kon (M⁻¹ s⁻¹)

AP17R1-2H2-Z1 (VHH, also called the humanized AP17R1-2H2; not shown: his- and c-Myc-tag from vector pETbac) VHH: QVQLVESGGGVVQPGGSLRLSCAASDSIDSLVNMGWYRQAPGKQRELVALIANYITHYADFVKGRFTISRDNSKNTLYLQMNSLRAEDTAVYYCYARNIIVDYWGQGTLVTVSS    237000
AP17R1-2H2-Z1-R1-29B6 (VHH, not shown: his- and c-Myc-tag from vector pETbac) VHH: QVQLVESGGGVVQPGGSLRLSCAASDSIDSLVNMGWYRQAPGKQRELVALIANYITHYADFVKGRFTISRDNSKNTLYLQMNSLRAEDTAVYYCYARNIYVDYWGQGTLVTVSS    323000
AP17R1-2H2-Z1-R1-27A2 (VHH, not shown: his- and c-Myc-tag from vector pETbac) VHH: QVQLVESGGGVVQPGGSLRLSCAASDSIDSLVNMGWYRQAPGKQRELVALIANYITHYADFVKGRFTISRDNSKNTLYLQMNSLRAEDTAVYYCYARSIIVDYWGQGTLVTVSS    302000
AP17R1-2H2-Z1-R1-14F1 (VHH, not shown: his- and c-Myc-tag from vector pETbac) VHH: QVQLVESGGGVVQPGGSLRLSCAASDSIDSLVNMGWYRQAPGKQRELVALIAYYITHYADFVKGRFTISRDNSKNTLYLQMNSLRAEDTAVYYCYARNIIVDYWGQGTLVTVSS    309000
AP17R1-2H2-Z1-R1-14B3 (VHH, not shown: his- and c-Myc-tag from vector pETbac) VHH: QVQLVESGGGVVQPGGSLRLSCAASDSIDSLVNMGWYRQAPGKQRELVALIARYITHYADFVKGRFTISRDNSKNTLYLQMNSLRAEDTAVYYCYARNIIVDYWGQGTLVTVSS    366000
AP17R1-2H2-Z1-R1-4B2 (VHH, not shown: his- and c-Myc-tag from vector pETbac) VHH: QVQLVESGGGVVQPGGSLRLSCAASDSISSLVNMGWYRQAPGKQRELVALIANYITHYADFVKGRFTISRDNSKNTLYLQMNSLRAEDTAVYYCYARNIIVDYWGQGTLVTVSS    345000
AP17R1-2H2-Z1-R1-14F3 (VHH, not shown: his- and c-Myc-tag from vector pETbac) VHH: QVQLVESGGGVVQPGGSLRLSCAASDSIDSLVNMGWYRQAPGKQRELVALIAWYITHYADFVKGRFTISRDNSKNTLYLQMNSLRAEDTAVYYCYARNIIVDYWGQGTLVTVSS    344000
AP17R1-2H2-Z1-R1-4D8 (VHH, not shown: his- and c-Myc-tag from vector pETbac) VHH: QVQLVESGGGVVQPGGSLRLSCAASDSIQSLVNMGWYRQAPGKQRELVALIANYITHYADFVKGRFTISRDNSKNTLYLQMNSLRAEDTAVYYCYARNIIVDYWGQGTLVTVSS    320000
